- System: SW620 cells
- Experiment summary: Ras cellular assay, growth of cells with K-Ras G12V mutation (CellTiter-Glo)
- Assay type: cell-based
- Measurement setup: Homo sapiens, SW-620; cell growth, Example 9, G12V mutation; read-out: IC50 against SW620 cells
pIC50: −log10 of the molar value.
Metric: pIC50

# Compound, Tested on, pIC50
records = [
    ("CC1Oc2c(Cl)c(-c3ccc(F)c4sc(N)c(C#N)c34)c(F)c3nc(OC[C@@]45CCCN4C[C@H](F)C5)nc(c23)N(CC(F)F)[C@H]1C(C)(C)O (stereo partly drawn)", "SW620 cells", "> 5.30"),
    ("N#Cc1c(N)sc2c(F)ccc(-c3c(Cl)c4c5c(nc(OC[C@@]67CCCN6C[C@H](F)C7)nc5c3F)N(CC(F)F)[C@@H](CNC(=O)[C@H]3CN3)CO4)c12", "SW620 cells", "> 5.30"),
]

Below: the item to evaluate.
Short answer for CC1COc2c(Cl)c(-c3ccc(F)c4sc(N)c(C#N)c34)c(F)c3nc(OC[C@@]45CCCN4C[C@H](F)C5)nc(c23)N1CC(F)F (single isomer, unassigned) : pIC50 was > 5.30

* * *

- Tested on: K-Ras G12D (Homo sapiens, UniProt P01116, G12D)
- Sequence (P01116 1-188 isoform P01116-2 G12D): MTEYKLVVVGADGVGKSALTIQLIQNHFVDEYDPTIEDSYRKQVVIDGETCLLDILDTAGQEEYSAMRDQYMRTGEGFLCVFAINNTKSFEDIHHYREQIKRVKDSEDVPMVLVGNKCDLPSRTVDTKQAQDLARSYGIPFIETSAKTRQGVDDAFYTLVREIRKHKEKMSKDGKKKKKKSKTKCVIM
- Experiment summary: HTRF resonance energy transfer assay, K-Ras G12D / SOS1 interaction
- Measurement setup: HTRF assay of Example 5; read-out: IC50 against K-Ras G12D
Metric: IC50

Use these answered entries as a reference point.
# Molecule, IC50
measured = [
    ("C[C@H]1CN(C23CC(C2)C3)c2nc(OC[C@@]34CCCN3C[C@H](F)C4)nc3c(F)c(-c4ccc(F)c5sc(N)c(C#N)c45)c(Cl)c(c23)O1", "< 100 nM"),
    ("N#Cc1c(N)sc2c(F)ccc(-c3c(Cl)c4c5c(nc(OC[C@@]67CCCN6C[C@H](F)C7)nc5c3F)N(C3CCCC3)CCO4)c12", "< 100 nM"),
    ("N#Cc1c(N)sc2c(F)ccc(-c3c(Cl)c4c5c(nc(OC[C@@]67CCCN6C[C@H](F)C7)nc5c3F)N(CC(F)F)[C@@H](C3CC3)CO4)c12", "< 100 nM"),
    ("N#Cc1c(N)sc2c(F)ccc(-c3c(Cl)c4c5c(nc(OC[C@@]67CCCN6C[C@H](F)C7)nc5c3F)N(CC(F)F)[C@@H](C(F)(F)F)CO4)c12", "< 100 nM"),
    ("CC(=O)C1COc2c(Cl)c(-c3ccc(F)c4sc(N)c(C#N)c34)c(F)c3nc(OC[C@@]45CCCN4C[C@H](F)C5)nc(c23)N1CC(F)F (some centres unmarked)", "< 100 nM"),
]

Sample N#Cc1c(N)sc2c(F)ccc(-c3c(Cl)c4c5c(nc(OC[C@@]67CCCN6C[C@H](F)C7)nc5c3F)N(C3CCN(C5CC5)C3)CCO4)c12 (some centres unmarked) , system: K-Ras G12D (Homo sapiens, UniProt P01116, G12D). Its IC50 is < 100 nM

* * *

compounds and their reported IC50
- Tested on: K-Ras G12V (Homo sapiens, UniProt P01116, G12V)
- Sequence (P01116 1-188 isoform P01116-2 G12V): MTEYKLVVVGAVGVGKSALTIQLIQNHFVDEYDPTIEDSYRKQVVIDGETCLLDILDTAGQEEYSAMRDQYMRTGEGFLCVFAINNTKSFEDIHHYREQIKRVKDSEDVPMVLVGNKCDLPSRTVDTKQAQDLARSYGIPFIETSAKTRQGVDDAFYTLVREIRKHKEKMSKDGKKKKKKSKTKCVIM
- Experiment summary: HTRF resonance energy transfer assay, K-Ras G12V / SOS1 interaction
- Measurement setup: HTRF assay of Example 5; read-out: IC50 against K-Ras G12V

Some solved cases for reference:
# Compound, IC50
records = [
    ("N#Cc1c(N)sc2c(F)ccc(-c3c(Cl)c4c5c(nc(OC[C@@]67CCCN6C[C@H](F)C7)nc5c3F)N(C3CCN(C(=O)C(F)F)C3)CCO4)c12 (some centres unmarked)", "< 100 nM"),
    ("C[C@H](Oc1nc2c3c(c(Cl)c(-c4ccc(F)c5sc(N)c(C#N)c45)c(F)c3n1)OCCN2CC(F)F)[C@@H]1CCCN1C", "< 100 nM"),
]

Switching to the query record.
Just so you know, measured IC50 for C[C@H](Oc1nc2c3c(c(Cl)c(-c4ccc(F)c5sc(N)c(C#N)c45)c(F)c3n1)OCCN2C1CCN(C(=O)c2ccnn2C)CC1)[C@@H]1CCCN1C came out at < 100 nM
